Parameter: PanDDA run, DMSO background map: 1-BDC. Scope: all listed entries.
# measured.on: SARS-CoV-2 NSP3 macrodomain (Mac1) (Severe acute respiratory syndrome coronavirus 2, UniProt P0DTD1)
# Type: binding
# protocol.conditions: crystal soak 10 mM; DMSO background map
# print the numeric value only

Example compounds with recorded PanDDA run, DMSO background map: 1-BDC:
| compound | quantitative.readout |
| --- | --- |
| O=C(O)C(F)(F)F.OC1([C@H]2CCCN2c2ncnc3[nH]ccc23)Cc2ccccc2C1 | 0.2 |
| OCC(Nc1ncnc2[nH]ccc12)c1ccco1 (stereo not drawn) | 0.16 |
| CCC(CC)(CO)Nc1ncnc2[nH]ccc12 | 0.12 |
| CN1CCN(c2ncnc3[nH]ccc23)C(CO)C1 (stereo not drawn) | 0.06 |
| OCC(COCc1ccccc1)Nc1ncnc2[nH]ccc12 (stereo not drawn) | 0.19 |
| OCCC(CO)Nc1ncnc2[nH]ccc12 (stereo not drawn) | 0.25 |

For reference, reported PanDDA run, DMSO background map: 1-BDC for OCC(Cc1ccoc1)Nc1ncnc2[nH]ccc12 (stereo not drawn) stands at 0.21

PanDDA run, DMSO background map: 1-BDC in this record for CN(C)C[C@@]1(O)CCCN(c2ncnc3[nH]ccc23)C1 : 0.17

Kindly note the recorded PanDDA run, DMSO background map: 1-BDC for O=C(O)C(F)(F)F.OC[C@@H]1CC2(CC2)CN1c1ncnc2[nH]ccc12 , which is 0.26

Consider Cc1nn(C)cc1C1CC[C@H](CO)N1c1ncnc2[nH]ccc12 (stereo partly drawn) . Its measured PanDDA run, DMSO background map: 1-BDC is 0.1

// field: PanDDA run, DMSO background map: 1-BDC; key: O=C(O)C(F)(F)F.OCC1(Nc2ncnc3[nH]ccc23)CCCC1 ; value = 0.22

Memo: OC[C@@H]1C[C@@H]2CCC[C@@H]2N1c1ncnc2[nH]ccc12 , reported PanDDA run, DMSO background map: 1-BDC: 0.29

PanDDA run, DMSO background map: 1-BDC recorded for this compound, OCC(CC1CC1)Nc1ncnc2[nH]ccc12 (stereo not drawn) , is 0.14

Value of PanDDA run, DMSO background map: 1-BDC reported for the compound O=C(O)C(F)(F)F.OC[C@@H](CCc1ccccc1)Nc1ncnc2[nH]ccc12 is 0.14

# PanDDA run, DMSO background map: 1-BDC of OCC(Cc1cccs1)Nc1ncnc2[nH]ccc12 (stereo not drawn) = 0.21

Documented PanDDA run, DMSO background map: 1-BDC of CC(C)CCC(CO)Nc1ncnc2[nH]ccc12.O=C(O)C(F)(F)F (stereo not drawn) : 0.15

For OCC(CC(F)(F)F)Nc1ncnc2[nH]ccc12 (stereo not drawn) the compound record lists PanDDA run, DMSO background map: 1-BDC as 0.23

// PanDDA run, DMSO background map: 1-BDC lookup, compound = OCC(Cc1ccccn1)Nc1ncnc2[nH]ccc12 (stereo not drawn) , result: 0.13

Lookup result for OCC(Nc1ncnc2[nH]ccc12)C1CCCC1 (stereo not drawn) ; measured PanDDA run, DMSO background map: 1-BDC: 0.16

# PanDDA run, DMSO background map: 1-BDC (compound: OCC1CCCN1c1ncnc2[nH]ccc12 (stereo not drawn) ) is 0.25

Documented PanDDA run, DMSO background map: 1-BDC of OCC(Cc1ccc(I)cc1)Nc1ncnc2[nH]ccc12 (stereo not drawn) : 0.2

FYI, the data here is from paper PMC12118597.
